# TARGET_OR_TEST_SYSTEM: Arginase-2, mitochondrial (Homo sapiens)
# TEST_DESCRIPTION: in vitro enzyme assay to detect the production of urea directly proportional to the activity of Arginase II
# Type: functional
# Set-up: scale not given: in the data most compounds retested in dose-response had high values
# REPORTED_CONDITIONS: 33.3 µM
Entries and their Percent Effect
Write the value in % as a bare number.

The cases that follow already have their Percent Effect on record.
MOLECULE	TARGET_OR_TEST_SYSTEM	Percent Effect, %
CC(C)c1nn(C)c(Cl)c1CNCc1ccc2c(c1)OCCO2	Arginase-2, mitochondrial (Homo sapiens)	-5.04
O=C(Nc1ccnc(OC2CCOC2)c1)c1cc(F)ccc1F (configuration not stated)	Arginase-2, mitochondrial (Homo sapiens)	-2.65
Cc1noc(C)c1C(=O)N(C)Cc1nc(-c2ccccn2)no1	Arginase-2, mitochondrial (Homo sapiens)	4.69
CCN(Cc1nc(C(C)C)no1)Cc1cccs1	Arginase-2, mitochondrial (Homo sapiens)	1.38
N#Cc1ccc(C2CC(=O)Nc3c2cnn3C2CCCC2)cc1 (configuration not stated)	Arginase-2, mitochondrial (Homo sapiens)	19.3
CC(NC(=O)NCCNc1ncccn1)c1cccs1 (configuration not stated)	Arginase-2, mitochondrial (Homo sapiens)	-2.49

Problem: Fill in the blank: the reported Percent Effect of Cc1cnn(C2CN(CC(=O)Nc3cccnc3)C2)c1 is ____.
Result: 2.52

Problem: Try O=C(CO)N1CCC(c2cncc(-c3cccc(Cl)c3)n2)CC1 next.
Result: 138

Problem: Also CC(C)Oc1ncccc1CNC(=O)c1cc[nH]n1 , if possible.
Result: -0.802

Problem: Please give the result for Cc1oc(C(=O)O)cc1S(=O)(=O)Nc1cc(Cl)ccc1F too.
Result: -1.42

Problem: And CC(C)n1ccc(-c2cc(C(=O)N3CCCC3)c3ccccn23)n1 ?
Result: 0.319

Problem: Same for CN(C)C(=O)CNC(=O)c1cc(Br)c2c(c1)OCCO2
Result: 1.56

----------
Percent Effect values, listed per item
# TARGET_OR_TEST_SYSTEM: Arginase-2, mitochondrial (Homo sapiens) (UniProt P78540)
# Sequence (whole entry): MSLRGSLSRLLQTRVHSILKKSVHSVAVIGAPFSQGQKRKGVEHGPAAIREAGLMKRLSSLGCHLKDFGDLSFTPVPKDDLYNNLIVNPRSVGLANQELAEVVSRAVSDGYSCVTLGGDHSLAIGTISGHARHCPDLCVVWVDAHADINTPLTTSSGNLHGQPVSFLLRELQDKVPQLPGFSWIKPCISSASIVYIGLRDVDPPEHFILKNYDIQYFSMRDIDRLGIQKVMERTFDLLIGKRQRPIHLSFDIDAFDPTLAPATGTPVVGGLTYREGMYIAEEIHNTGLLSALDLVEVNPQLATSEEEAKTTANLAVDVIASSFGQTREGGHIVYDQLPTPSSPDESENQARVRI
# TEST_DESCRIPTION: in vitro enzyme assay to detect the production of urea directly proportional to the activity of Arginase II
# Format: functional
# Parameters: scale not given: in the data most compounds retested in dose-response had high values
# REPORTED_CONDITIONS: 33.3 µM
Field format: number, assumed %, no unit text.

Sample answers from the record:
COMPOUND	Percent Effect (%)
Cc1cccc(-c2nc(C)nn2CC(=O)NC2CCCC2)c1	3.2
N#CC(Sc1nnnn1C1CCOCC1)C1CCCCC1 (stereo not drawn)	0.521
CCn1cc(NC(=O)NCC(C)O)cn1 (stereo not drawn)	4.18
O=C(O)C1(Cc2cc(-c3ccc(F)cc3F)no2)CCOCC1	-9.51
O=C(NCc1ccccc1CN1CCC(O)CC1)Nc1cccnc1	2.38
CCn1cc(NC(=O)NCC(O)COc2cccc(F)c2)cn1 (stereo not drawn)	1.92
Cc1ccc(NC(=O)N2CCOC(C)C2)cc1Cl (stereo not drawn)	-6.39
Cn1cccc1C(=O)N1CCn2cc(CNC(=O)CC3CC3)nc2C1	-0.233
Cc1nn(C)c(N(C)C)c1CNC1CCc2c(F)cccc21 (stereo not drawn)	5.75
CCOCc1ncn2c1CN(C(=O)Nc1cccc(C)c1)CC2	0.417

From here, focus on the item given below.
Problem: Value lookup for Percent Effect; key = Cc1nc(N2CCCC2)ncc1-c1cc(O)nc(N2CCCC2)n1
Result: -2.64
